Target: Human MGAT-2 (Homo sapiens (Human), UniProt Q3SYC2)
Sequence (Q3SYC2 whole entry): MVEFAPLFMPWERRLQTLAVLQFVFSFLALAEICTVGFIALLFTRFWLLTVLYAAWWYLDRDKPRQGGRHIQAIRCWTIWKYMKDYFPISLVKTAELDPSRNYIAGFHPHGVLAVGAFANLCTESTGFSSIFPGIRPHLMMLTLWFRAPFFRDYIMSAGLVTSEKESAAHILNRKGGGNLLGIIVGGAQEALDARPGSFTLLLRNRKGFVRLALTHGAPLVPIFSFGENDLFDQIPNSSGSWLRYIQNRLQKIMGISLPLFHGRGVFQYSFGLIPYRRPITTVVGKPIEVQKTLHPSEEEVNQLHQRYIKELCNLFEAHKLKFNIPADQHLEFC
Test: MGAT LCMS Assay (human MGAT-2);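 further: diolein product quantified by LC/MS with positive APCI, expressed as peak area ratio versus an internal standard, and this ratio used to derive IC50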
Type: biochemical
Settings: human MGAT-2 membranes expressed in Sf9 cells; 2-oleoylglycerol and oleoyl-Coenzyme A; read-out: h-MGAT2 IC50 (nM) LCMS Assay
MEASURED ENDPOINT: IC50 (nM)

Answered cases to consult:
COc1ccc(C2=C[C@](c3ccc(OCCCC(F)(F)F)cc3)(C(F)(F)F)NC(=O)C2(F)C#N)cc1 (single isomer, unassigned) [Example 15-2]: 431
Cc1ccc(C2=C(NC(=O)c3ccccc3Cl)C(=O)NC(c3ccc(OCCCC(F)(F)F)cc3)(C(F)(F)F)C2)cc1 (stereo not drawn): 113

1. Cc1ccc(C2=C(NC(=O)c3cn(C)nn3)C(=O)NC(c3ccc(OCCCC(F)(F)F)cc3)(C(F)(F)F)C2)cc1 (stereo not drawn)
2. COc1ccc(NC(=O)C2=C(c3ccc(C)cc3)CC(C)(C(=O)NCc3ccccc3)NC2=O)cc1 (stereo not drawn)
Prompt: I'm curious whether 1 or 2 has the smaller IC50 number. Which is it? Mark your selection by writing its label.
Completion: 1

1. Cc1cccc(C2=C(c3nn[nH]n3)C(=O)NC(c3ccc(OCCCC(F)(F)F)cc3)(C(F)(F)F)C2)c1 (stereo not drawn)
2. Cc1ccc(NC(=O)C2=C(c3ccc(C)cc3)CC(c3ccc(OCCCC(F)(F)F)cc3)(C(F)(F)F)NC2=O)cc1 (stereo not drawn)
Prompt: Lower value of IC50 belongs to which: 1 or 2 ? # answer = label of selected item
Completion: 2

P. Cc1ccc(C2=C(C#N)C(=O)NC(c3ccc(OCCCC(F)(F)F)cc3)(C(F)(F)F)C2)cc1F (stereo not drawn) [Example 256]
Q. Cc1ccc(C2=C(n3cnnn3)C(=O)NC(c3ccc(OCCCC(F)(F)F)cc3)(C(F)(F)F)C2(F)F)cc1 (stereo not drawn)
R. Cc1ccc(C2=C(C#N)C(=O)NC(c3ccc(OCCCC(F)(F)F)cc3)(C(F)(F)F)C2)cc1F (stereo not drawn) [Example 219]
S. Cc1ccc(C2=C(c3nn[nH]n3)C(=O)NC(c3cnn(CCCCC(F)(F)F)c3)(C(F)(F)F)C2)cc1 (stereo not drawn)
T. N#CC1=C(c2ccc(OC(F)(F)F)c(F)c2)CC(c2ccc(OCCCC(F)(F)F)cc2)(C(F)(F)F)NC1=O (stereo not drawn)
Prompt: Put the items in order so that reported IC50 rises from first to last. In your reply, arrange the labels in the requested order.
Completion: P, R, S, T, Q

----------
Biological target: Human MGAT-2 (Homo sapiens (Human))
Test: MGAT LCMS Assay (human MGAT-2)
Assay type: biochemical
Details: human MGAT-2 membranes expressed in Sf9 cells; 2-oleoylglycerol and oleoyl-Coenzyme A; read-out: h-MGAT2 IC50 (nM) LCMS Assay
MEASURED ENDPOINT: IC50 (nM)

// solved cases for IC50 follow
Cc1ccc(C2=C(NC(=O)CNS(C)(=O)=O)C(=O)NC(c3ccc(OCCCC(F)(F)F)cc3)(C(F)(F)F)C2)cc1 (centres unmarked) [Example 297]: 639
O=C1NC(c2ccc(OCCCC(F)(F)F)cc2)(C(F)(F)F)CC(c2cccc(Cl)c2)=C1c1nn[nH]n1 (centres unmarked) [Example 99]: 795
Cc1ccc(C2=C(NC(=O)c3nnn[nH]3)C(=O)NC(c3ccc(OCCCC(F)(F)F)cc3)(C(F)(F)F)C2)cc1 (centres unmarked) [Example 310]: 4
Cc1ccc(C2=C([N+](=O)[O-])C(=O)NC(c3ccc(OCCCC(F)(F)F)cc3)(C(F)(F)F)C2)cc1 (centres unmarked) [Example 13]: 35
O=C1NC(c2ccc(OCCCCCC(F)(F)F)cc2F)(C(F)(F)F)CC(c2ccc(OC(F)F)cc2)=C1c1nn[nH]n1 (centres unmarked) [Example 274]: 1
COc1ccc(NC(=O)C2=C(c3ccc(C)cc3)CC(c3ccc(OCC(F)(F)F)cc3)(C(F)(F)F)NC2=O)cc1 (centres unmarked) [Example 88]: 5
COc1ccc(C2=C(c3nn[nH]n3)C(=O)NC(c3ccc(OCCCC(F)(F)F)cc3)(C(F)(F)F)C2)c2c1CCC2 (centres unmarked) [Example 212]: 416
CCOCc1ccc(C2=C(c3nn[nH]n3)C(=O)NC(c3ccc(OCCCC(F)(F)F)cc3)(C(F)(F)F)C2)cc1F (centres unmarked) [Example 203]: 59

a. Cc1ccc(C2=C(NC(=O)c3cocn3)C(=O)NC(c3ccc(OCCCC(F)(F)F)cc3)(C(F)(F)F)C2)cc1 (centres unmarked) [Example 151]
b. O=C1NC(c2ccc(OCCCCCC(F)(F)F)c(F)c2)(C(F)(F)F)CC(c2ccc3ccccc3c2)=C1c1nn[nH]n1 (centres unmarked) [Example 309]
c. O=C1NC(c2ccc(OCCCC(F)(F)F)cc2)(C(F)(F)F)CC(c2ccc3c(c2)OCCO3)=C1c1nn[nH]n1 (centres unmarked) [Example 209]
Prompt: Rank ascending by IC50. In your reply, arrange the labels in the requested order.
Completion: b, c, a
(b: 1 nM, c: 37 nM, a: 5120 nM)

1. Cc1ccc(C2=C(c3cn[nH]n3)C(=O)NC(C#CC3CC3)(C(F)(F)F)C2)cc1 (centres unmarked) [Example 197]
2. O=C1NC(c2ccc(OCCCC(F)(F)F)cc2)(C(F)(F)F)CC(c2ccc(OC(F)F)cc2)=C1NC(=O)c1ccno1 (centres unmarked) [Example 167]
Prompt: Decide: 1 or 2 , by lowest recorded IC50. Kindly give the label for the entry you pick.
Completion: 2
(2: 2 nM, 1: 178 nM)
